assay: Pharmacokinetics in vivo in rats; parameters: species or system SD rats; conditions: SD, rat, plasma; 3 mg/kg oral administration in rats (Table 2A); read-out: Peak concentration (Cmax)
Readout Kind: Cmax (ng/mL)

>>> reported("CCOc1ccc(-c2ccc(NC(=O)N[C@H]3CC[C@H](C)CC3)cc2-c2nn[nH]n2)cn1")
914
>>> reported("CCOc1ccc(-c2c(F)cc(NC(=O)N3CCC(C(C)(C)C)CC3)cc2-c2nn[nH]n2)cn1")
1390

---

Test: Drug concentration in rat retinas after intraocular injection (HPLC)
Type: in vivo, Wistar rats
Conditions: male, Wistar, rat, topical or ocular, 5 μL of 0.5% solution per eye; retina; intraocular injection of 5 μL of 0.5% per eye; two-compartment model; read-out: Area under the time curve AUC
Procedure: 1.1 Experimental aminals: SPF-grade male Wistar rats weighed 180-220 g. […] 1.5.2 Sample processing and preparation: the sample of the rat retina was taken out from the ultra-low temperature (−80° C.) refrigerator, accurately weighed and placed in a glass homogenizer, and ethyl acetate as an organic solvent pre-cooled in a 4° C. refrigerator was added at a ratio of 100 mL/g. […] 20 μL of the supernatant was taken, and analyzed in a high-performance liquid chromatography system. […]
Readout Kind: AUC (µg·h/mL)

>>> reported("CCOc1ccc(-c2ccc(NC(=O)N[C@H]3CC[C@H](C)CC3)cc2-c2nn[nH]n2)cn1")
901

---

Each entry below carries its recorded IC50.
target: human B1R (Homo sapiens, UniProt P46663); construct: host or cells: HEK293; assay: FLIPR calcium ion flux assay, inhibitory activity against human B1R; assay type: cell-based; settings: HEK293 cells stably expressing human B1R; agonist [Lys-des-Arg9]-Bradykinin 4.6 nM (EC80); FLIPR method
Sequence (P46663 whole entry): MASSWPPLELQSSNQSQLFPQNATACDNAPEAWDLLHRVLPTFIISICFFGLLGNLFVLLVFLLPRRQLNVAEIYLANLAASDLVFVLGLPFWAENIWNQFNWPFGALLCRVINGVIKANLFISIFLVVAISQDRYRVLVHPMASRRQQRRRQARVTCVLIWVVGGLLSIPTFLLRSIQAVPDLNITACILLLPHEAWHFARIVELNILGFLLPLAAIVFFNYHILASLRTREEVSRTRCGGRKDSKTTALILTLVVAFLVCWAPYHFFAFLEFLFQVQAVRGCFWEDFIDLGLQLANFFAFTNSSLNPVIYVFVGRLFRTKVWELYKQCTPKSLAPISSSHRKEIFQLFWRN
Readout Kind: IC50 (nM)

>>> reported("O=C(OC1CCCCC1)c1c(F)cc(NC(=O)N2CCC(C(F)(F)F)CC2)cc1-c1nn[nH]n1")
34.6
>>> reported("CCOC(=O)c1ccc(NC(=O)N2CCC(C(C)(C)C)CC2)cc1-c1nn[nH]n1 [Compound 16]")
28.2
>>> reported("CC(C)Oc1ccc(-c2c(F)cc(NC(=O)N3CCC(C(C)(C)C)CC3)cc2-c2nn[nH]n2)cn1")
7.6
>>> reported("COc1ccc(-c2c(F)cc(NC(=O)N3CCC(C(C)(C)C)CC3)cc2-c2nn[nH]n2)cc1OC")
14.6
>>> reported("CCOC(=O)c1ncc(NC(=O)N2CCC(C(C)(C)C)CC2)cc1-c1nn[nH]n1")
72.7
>>> reported("COc1ccc(-c2c(F)cc(NC(=O)N3CCC(C(F)(F)F)CC3)cc2-c2nn[nH]n2)cc1OC")
54.4
>>> reported("CC(C)Oc1ccc(-c2ccc(NC(=O)N3CCC(C(C)(C)C)CC3)cc2-c2nn[nH]n2)cn1")
9.6
>>> reported("CC(C)(C)C1CCN(C(=O)Nc2ccc(C3C=COCC3)c(-c3nn[nH]n3)c2)CC1 (stereo not drawn)")
448
>>> reported("COc1ccc(-c2c(F)cc(NC(=O)N3CCC(C(C)(C)C)CC3)cc2-c2nn[nH]n2)cc1Cl")
14.6
>>> reported("COc1ccc(-c2ccc(NC(=O)N3CCC(C(F)(F)F)CC3)cc2-c2nn[nH]n2)cc1Cl")
24.5
>>> reported("COc1ccc(-c2ccc(NC(=O)N(C)[C@H]3CC[C@H](C(C)(C)C)CC3)cc2-c2nn[nH]n2)cc1OC")
43.5
>>> reported("COc1ccc(-c2ccc(NC(=O)N[C@H]3CC[C@@H](C)CC3)cc2-c2nn[nH]n2)cc1OC")
92.2
>>> reported("CC(C)(C)C1CCN(C(=O)Nc2ccc(C(=O)OC3CCCC3)c(-c3nn[nH]n3)c2)CC1")
95.2
>>> reported("Cn1ncc2cc(-c3ccc(NC(=O)N4CCC(C(F)(F)F)CC4)cc3-c3nn[nH]n3)ccc21")
25.7
>>> reported("CC(C)(C)C1CCN(C(=O)Nc2ccc(C(=O)OC3CCOC3)c(-c3nn[nH]n3)c2)CC1 (stereo not drawn)")
106
